This collection of values is drawn from patent US8962244B2.

- TARGET_SYSTEM: MEX-5 (Caenorhabditis elegans, UniProt Q9XUB2)
- Construct: The fragment of mex-5 containing the TZF domain (amino acids 236-350) was amplified; made in house; host or cells: Escherichia coli JM109
- Sequence (Q9XUB2 236-350): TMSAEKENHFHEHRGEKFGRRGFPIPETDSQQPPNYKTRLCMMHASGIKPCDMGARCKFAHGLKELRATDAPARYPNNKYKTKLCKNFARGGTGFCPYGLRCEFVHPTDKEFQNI
- TEST_PROTOCOL: Fluorescence polarization screening of MEX-5 binding to fluorescein-labeled TCR2 RNA
- CONDITIONS: 192 μM test compound; score = polarization relative to no-drug and no-protein controls; 0.25 = 75% inhibition; lowest score = greatest inhibition; read-out: MEX-5 score
Label 1 (yes) when remaining activity at 192 µM is strictly below 20%; at or above that, label 0 (no).

Use these answered entries as a reference point.
COMPOUND	LABEL
Oc1ccccc1-c1n[nH]c(=S)n1-c1ccccc1 [BM]	1 (yes)
CC(=O)Oc1ccccc1-c1nc2s/c(=C3\C(=O)N(CC(N)=O)c4ccccc43)c(=O)n2n1 [C]	1 (yes)
S=C(Nc1ccccc1)Nc1nc2ccccc2n1Cc1ccccc1 [AR]	1 (yes)
Cc1n[nH]c(SCc2ccc(CSc3nc(C)n[nH]3)cc2)n1 [AA]	1 (yes)
COc1ccc(OCCn2c(NC(C)=O)nc3ccccc32)cc1 [BC]	1 (yes)

Input CC(=O)NC(c1ccco1)c1cc([N+](=O)[O-])c2cccnc2c1O (stereo not shown) [Y] ; condition: remaining activity at 192 µM strictly below 20%. Does it hold? 1 (yes)

Input O=S(=O)(Nc1nc(-c2ccccc2)c(-c2ccccc2)o1)c1ccc(Cl)cc1 [CO] ; condition: remaining activity at 192 µM strictly below 20%. Does it hold? 0 (no)

Input O=C(O)c1ccccc1NC(=S)NC(=O)c1sc2ccccc2c1Cl [BP] ; condition: remaining activity at 192 µM strictly below 20%. Does it hold? 1 (yes)

Input O=C(NC(=S)N(Cc1ccccc1)Cc1ccccc1)c1ccc(Br)o1 [CP] ; condition: remaining activity at 192 µM strictly below 20%. Does it hold? 0 (no)

Input Cc1ccc(S(=O)(=O)NC(=S)NCc2cccc(Oc3ccccc3)c2)cc1 [BY] ; condition: remaining activity at 192 µM strictly below 20%. Does it hold? 0 (no)

Input Sc1nnc(CSCc2ccccc2Cl)n1-c1ccccc1 [BL] ; condition: remaining activity at 192 µM strictly below 20%. Does it hold? 1 (yes)

Input CCOC(=O)C(=O)Nc1nnc(Cc2ccc(Cl)cc2)s1 [Q] ; condition: remaining activity at 192 µM strictly below 20%. Does it hold? 1 (yes)

Input O=C(O)c1ccc(NC(=S)NC(=O)c2ccc(I)cc2)cc1 [AE] ; condition: remaining activity at 192 µM strictly below 20%. Does it hold? 1 (yes)

Input O=C(O)c1ccc(C2Nc3ccc([N+](=O)[O-])cc3C3c4ccccc4CC23)cc1 (stereo not shown) [AB] ; condition: remaining activity at 192 µM strictly below 20%. Does it hold? 1 (yes)

Input Cc1sc(NC(=O)c2cnccn2)c(C(N)=O)c1C [AZ] ; condition: remaining activity at 192 µM strictly below 20%. Does it hold? 1 (yes)

Input COc1ccc(C(=O)NC(=S)Nc2cc(C)cc(C)c2)cc1Cl [BN] ; condition: remaining activity at 192 µM strictly below 20%. Does it hold? 1 (yes)

Input CCc1cc(-c2n[nH]c(C)c2-c2nc3ccccc3s2)c(O)cc1OC [CU] ; condition: remaining activity at 192 µM strictly below 20%. Does it hold? 0 (no)

Input Cc1ccccc1OCc1nnc(S)n1C [CN] ; condition: remaining activity at 192 µM strictly below 20%. Does it hold? 0 (no)

Input O=C1NN(c2ccccc2)C(=O)/C1=C\c1cccc(OC(=O)c2cccs2)c1 [CA] ; condition: remaining activity at 192 µM strictly below 20%. Does it hold? 0 (no)

Input O=C(Oc1ccc2ccccc2c1)c1ccc2c(c1)C1C=CCC1C(C(=O)O)N2 (stereo not shown) [H] ; condition: remaining activity at 192 µM strictly below 20%. Does it hold? 1 (yes)
